compounds and their reported AUC
# assay comment: AUC in ICR mouse at 20 mg/kg, po by LC-MS/MS analysis
# Assay type: ADME, organism-based
# Parameters: dose 20 mg/kg, route po
# assay setup: in vivo

compound: Cc1nc(N[C@H](C)c2cccc(C(F)F)c2F)c2cc3c(cc2n1)OC[C@H]1CN(C(=O)[C@@H]2CCOC2)CCN31
AUC, ng·h/mL: 780
--
compound: Cc1nc(N[C@H](C)c2cccc(C(F)F)c2F)c2cc3c(cc2n1)OC[C@H]1CN(C(=O)N2CCOCC2)CCN31
AUC, ng·h/mL: 872
--
compound: COCC(=O)N1CCN2c3cc4c(N[C@H](C)c5cccc(C(F)F)c5F)nc(C)nc4cc3OC[C@H]2C1
AUC, ng·h/mL: 860
--
compound: CC(=O)N1CCN2c3cc4c(N[C@H](C)c5cccc(C(F)F)c5F)nc(C)nc4cc3OC[C@H]2C1
AUC, ng·h/mL: 601
--
compound: Cc1nc(N[C@H](C)c2cccc(C(F)F)c2F)c2cc3c(cc2n1)OC[C@H]1CN(C(=O)N(C)C)CCN31
AUC, ng·h/mL: 3980
--
compound: Cc1nc(N[C@H](C)c2cccc(C(F)F)c2F)c2cc3c(cc2n1)OC[C@H]1CN(C(=O)C2CCO2)CCN31 (stereo not given in full)
AUC, ng·h/mL: 534
--
compound: COCCC(=O)N1CCN2c3cc4c(N[C@H](C)c5cccc(C(F)F)c5F)nc(C)nc4cc3OC[C@H]2C1
AUC, ng·h/mL: 3340
--
compound: COc1cc2nc(C)nc(N[C@H](C)c3cc(N)cc(C(F)(F)F)c3)c2cc1O[C@H]1CCOC1
AUC, ng·h/mL: 4680
--
compound: COCC1(C(=O)N2CCN3c4cc5c(N[C@H](C)c6cccc(C(F)F)c6F)nc(C)nc5cc4OC[C@H]3C2)CC1
AUC, ng·h/mL: 398
--
compound: CNC(=O)N1CCN2c3cc4c(N[C@H](C)c5cccc(C(F)F)c5F)nc(C)nc4cc3OC[C@H]2C1
AUC, ng·h/mL: 2830

----------
Below, each entry is listed with its recorded half-life.
# assay comment: Half life in ICR mouse at 20 mg/kg, po by LC-MS/MS analysis
# Format: ADME, organism-based
# assay setup: ICR, in vivo
measured endpoint: half-life (h)

smiles code: Cc1nc(N[C@H](C)c2cccc(C(F)F)c2F)c2cc3c(cc2n1)OC[C@H]1CN(C(=O)N2CCOCC2)CCN31
readout units: h
value: 1.78
--
smiles code: COCC1(C(=O)N2CCN3c4cc5c(N[C@H](C)c6cccc(C(F)F)c6F)nc(C)nc5cc4OC[C@H]3C2)CC1
readout units: h
value: 2.28
--
smiles code: Cc1nc(N[C@H](C)c2cccc(C(F)F)c2F)c2cc3c(cc2n1)OC[C@H]1CN(C(=O)[C@@H]2C[C@H]2F)CCN31
readout units: h
value: 6.67
--
smiles code: Cc1nc(N[C@H](C)c2cccc(C(F)F)c2F)c2cc3c(cc2n1)OC[C@H]1CN(C(=O)C2CCOCC2)CCN31
readout units: h
value: 2.13
--
smiles code: COCCC(=O)N1CCN2c3cc4c(N[C@H](C)c5cccc(C(F)F)c5F)nc(C)nc4cc3OC[C@H]2C1
readout units: h
value: 3.85
--
smiles code: Cc1nc(N[C@H](C)c2cccc(C(F)F)c2F)c2cc3c(cc2n1)OC[C@H]1CN(C(=O)C2COC2)CCN31
readout units: h
value: 3.73
--
smiles code: COc1cc2nc(C)nc(N[C@H](C)c3cc(N)cc(C(F)(F)F)c3)c2cc1O[C@H]1CCOC1
readout units: h
value: 4.48
--
smiles code: Cc1nc(N[C@H](C)c2cccc(C(F)F)c2F)c2cc3c(cc2n1)OC[C@H]1CN(C(=O)[C@@H]2CCOC2)CCN31
readout units: h
value: 18
--
smiles code: COCC(=O)N1CCN2c3cc4c(N[C@H](C)c5cccc(C(F)F)c5F)nc(C)nc4cc3OC[C@H]2C1
readout units: h
value: 5.86
--
smiles code: Cc1nc(N[C@H](C)c2cccc(C(F)F)c2F)c2cc3c(cc2n1)OC[C@H]1CN(C(=O)N(C)C)CCN31
readout units: h
value: 12.3
--
smiles code: Cc1nc(N[C@H](C)c2cccc(C(F)F)c2F)c2cc3c(cc2n1)OC[C@H]1CN(C(=O)C2(C#N)CC2)CCN31
readout units: h
value: 3.87
--
smiles code: CC(=O)N1CCN2c3cc4c(N[C@H](C)c5cccc(C(F)F)c5F)nc(C)nc4cc3OC[C@H]2C1
readout units: h
value: 2.14
--
smiles code: Cc1nc(N[C@H](C)c2cccc(C(F)F)c2F)c2cc3c(cc2n1)OC[C@H]1CN(C(=O)C2(F)CC2)CCN31
readout units: h
value: 2.34
